Target: T1, METTL16 MTD (methyltransferase domain) (Homo sapiens, UniProt Q86W50 1-291)
T1 sequence: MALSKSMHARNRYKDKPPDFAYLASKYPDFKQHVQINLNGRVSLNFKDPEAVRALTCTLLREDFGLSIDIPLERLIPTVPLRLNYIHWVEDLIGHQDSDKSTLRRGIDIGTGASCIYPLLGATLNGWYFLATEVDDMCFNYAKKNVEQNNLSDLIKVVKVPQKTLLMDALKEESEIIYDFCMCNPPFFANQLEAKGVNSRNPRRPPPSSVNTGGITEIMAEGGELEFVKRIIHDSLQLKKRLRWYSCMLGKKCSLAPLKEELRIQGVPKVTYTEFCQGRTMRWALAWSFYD
Assay: competition FP; vs FAM-MAT2A-hp1; 20 mM HEPES pH 7.5, 50 mM NaCl, 0.05% Tween 20, 0.05 mg/mL BGG, room temperature; EMSA 6.6% native PAGE 0.5x TBE at 4 C
Conditions: protein: recombinant; tags: N-terminal His tag removed by HRV 3C (His-tagged form also purified)
readout: IC50 (nM)
Expressed in nM, but write only the number.

Ask: So what does the record say about IC50 for UUCUUCUGUGGACUGUG (ssRNA) [GGACU-RNA (unlabeled)] ?
Result: 814

Data provenance: paper PMC11040665
